Measurement target: HCV NS3/4A protease complex, BMS strain (UniProt P27958, C1454S/C1711G, species not given)
Construct: other: HCV NS3/4A enzyme assay; class symbols; numeric values; fused on or other part: three-lysine solubilising tail at the C-terminus of NS4A; purified on Ni-NTA from the pET21b vector (His tag implied)
Experiment summary: FRET peptide assay to monitor HCV NS3/4A proteolytic activity (BMS strain)
Format: biochemical, HCV genotype 1a
Particulars: read-out: IC50 Range; HCV NS3/4A enzyme assay; numeric values
Measurement type: pIC50
In simple prose, pIC50 is minus the logarithm base ten of a concentration in moles per litre.

Sample answers from the record:
>  <Compound>
C=C[C@@H]1C[C@]1(NC(=O)[C@@H]1C[C@@H](Oc2ncc(OC)c3ccc(Cl)cc23)CN1C(=O)[C@@H](Nc1nc(-c2cc(-c3ccc(Cl)cc3Cl)no2)cs1)C(C)(C)C)C(=O)NS(=O)(=O)C1CC1 [Example 86]

>  <pIC50>
8.70

$$$$
>  <Compound>
C=C[C@@H]1C[C@]1(NC(=O)[C@@H]1C[C@@H](Oc2ncc(OC)c3ccc(Cl)cc23)CN1C(=O)[C@@H](Nc1nc(-c2ccc(C(F)(F)F)cc2C(F)(F)F)cs1)C(C)(C)C)C(=O)NS(=O)(=O)C1CC1 [Example 70]

>  <pIC50>
7.05

$$$$

// query For the compound shown here, C=C[C@@H]1C[C@]1(NC(=O)[C@@H]1C[C@@H](Oc2ncc(OC)c3ccc(Cl)cc23)CN1C(=O)[C@@H](Nc1nc(-c2ccccc2O)cs1)C(C)(C)C)C(=O)NS(=O)(=O)C1CC1 [Example 50] , give the reported pIC50.
// result 7.41

// query What do you get for C=C[C@@H]1C[C@]1(NC(=O)[C@@H]1C[C@@H](Oc2ccc(OC)c3ccc(Cl)cc23)CN1C(=O)[C@@H](Nc1nc(-c2ccc(F)c(C(F)(F)F)c2)cs1)C(C)(C)C)C(=O)NS(=O)(=O)C1CC1 [Example 74] ?
// result 8.70

###

Measurement target: HCV NS3/4A protease complex, BMS strain (UniProt P27958, C1454S/C1711G, species not given)
Construct: other: HCV NS3/4A enzyme assay; class symbols; numeric values; fused on or other part: three-lysine solubilising tail at the C-terminus of NS4A; purified on Ni-NTA from the pET21b vector (His tag implied)
Experiment summary: FRET peptide assay to monitor HCV NS3/4A proteolytic activity (BMS strain)
Type: biochemical, HCV genotype 1a
Particulars: read-out: IC50 Range; HCV NS3/4A enzyme assay; class symbols
Description: HCV NS3 protease complexes, derived from the BMS strain, H77 strain or J4L6S strain, were generated, as described below. […] In order to monitor HCV NS3/4A protease activity, an NS3/4A peptide substrate was used. […] The peptide also contains a fluorescence donor, EDANS, near one end of the peptide and an acceptor, DABCYL, near the other end. […]
pIC50: −log10 of the molar value.
Recorded pIC50 values for a group of compounds are listed next.

>  <Compound>
C=C[C@@H]1C[C@]1(NC(=O)[C@@H]1C[C@@H](Oc2ncc(OC)c3ccc(Cl)cc23)CN1C(=O)[C@@H](Nc1nc(-c2ccc3c(c2)OCCO3)cs1)C(C)(C)C)C(=O)NS(=O)(=O)C1CC1 [Example 36]

>  <Measurement target>
HCV NS3/4A protease complex, BMS strain (UniProt P27958, C1454S/C1711G, species not given)

>  <pIC50>
7.70 to 9.00

$$$$
>  <Compound>
C=C[C@@H]1C[C@]1(NC(=O)[C@@H]1C[C@@H](Oc2ncc(OC)c3ccc(Cl)cc23)CN1C(=O)[C@@H](Nc1nc(-c2ccc(C)cc2)cs1)C(C)(C)C)C(=O)NS(=O)(=O)C1CC1 [Example 23]

>  <Measurement target>
HCV NS3/4A protease complex, BMS strain (UniProt P27958, C1454S/C1711G, species not given)

>  <pIC50>
6.70 to 7.70

$$$$

Now let's try a different one.
// query For the compound shown here, C=C[C@@H]1C[C@]1(NC(=O)[C@@H]1C[C@@H](Oc2ncc(OC)c3ccc(Cl)cc23)CN1C(=O)[C@@H](Nc1nc(-c2cccc(F)c2F)cs1)C(C)(C)C)C(=O)NS(=O)(=O)C1CC1 [Example 80] , give the reported pIC50.
// result 7.70 to 9.00

###

Measurement target: HCV NS3/4A protease complex, BMS strain (UniProt P27958, C1454S/C1711G, species not given)
Construct: other: HCV NS3/4A enzyme assay; class symbols; numeric values; fused on or other part: three-lysine solubilising tail at the C-terminus of NS4A; purified on Ni-NTA from the pET21b vector (His tag implied)
Experiment summary: FRET peptide assay to monitor HCV NS3/4A proteolytic activity (BMS strain)
Assay type: biochemical, HCV genotype 1a
Particulars: read-out: IC50 Range; HCV NS3/4A enzyme assay; numeric values
Measurement type: IC50 (nM)
Express the result in nM but write the number alone.

Sample answers from the record:
>  <Compound>
C=C[C@@H]1C[C@]1(NC(=O)[C@@H]1C[C@@H](Oc2ncc(OC)c3ccc(Cl)cc23)CN1C(=O)C(Nc1ccc(-c2ccccc2)c(OC)c1)C(C)(C)C)C(=O)NS(=O)(=O)C1CC1 (single isomer, unassigned) [Example 18B]

>  <IC50 (nM)>
2500

$$$$
>  <Compound>
C=C[C@@H]1C[C@]1(NC(=O)[C@@H]1C[C@@H](Oc2ncc(OC)c3ccc(Cl)cc23)CN1C(=O)C(C)Nc1nnnn1-c1ccccc1)C(=O)NS(=O)(=O)C1CC1 (stereo partly shown)

>  <IC50 (nM)>
795

$$$$
>  <Compound>
C=C[C@@H]1C[C@]1(NC(=O)[C@@H]1C[C@@H](Oc2ncc(OC)c3ccc(Cl)cc23)CN1C(=O)C(Nc1ccc(-c2ccccc2)c(OC)c1)C(C)(C)C)C(=O)NS(=O)(=O)C1CC1 (single isomer, unassigned) [Example 18A]

>  <IC50 (nM)>
54

$$$$
>  <Compound>
C=C[C@@H]1C[C@]1(NC(=O)[C@@H]1C[C@@H](Oc2ncc(OC)c3ccc(Cl)cc23)CN1C(=O)[C@@H](Nc1nc(-c2ccc(OC(F)(F)F)cc2)cs1)C(C)(C)C)C(=O)NS(=O)(=O)C1CC1

>  <IC50 (nM)>
11

$$$$
>  <Compound>
C=C[C@@H]1C[C@]1(NC(=O)[C@@H]1C[C@@H](Oc2ncc(OC)c3ccc(Cl)cc23)CN1C(=O)[C@@H](Nc1nc(-c2ccccc2)cs1)C(C)(C)C)C(=O)NS(=O)(=O)C1CC1

>  <IC50 (nM)>
3

$$$$

// query For the compound shown here, C=C[C@@H]1C[C@]1(NC(=O)[C@@H]1C[C@@H](Oc2ncc(OC)c3ccc(Cl)cc23)CN1C(=O)[C@@H](Nc1nc(-c2ccccc2OC)cs1)C(C)(C)C)C(=O)NS(=O)(=O)C1CC1 , give the reported IC50.
// result 9

// query What do you get for C=C[C@@H]1C[C@]1(NC(=O)[C@@H]1C[C@@H](Oc2ncc(OC)c3ccc(Cl)cc23)CN1C(=O)[C@@H](Nc1nc(-c2ccncc2)cs1)C(C)(C)C)C(=O)NS(=O)(=O)C1CC1 ?
// result 1

###

Recorded IC50 values for a group of compounds are listed next.
Measurement target: HCV NS3/4A protease complex, BMS strain (UniProt P27958, C1454S/C1711G, species not given)
Construct: other: HCV NS3/4A enzyme assay; class symbols; numeric values; fused on or other part: three-lysine solubilising tail at the C-terminus of NS4A; purified on Ni-NTA from the pET21b vector (His tag implied)
Experiment summary: FRET peptide assay to monitor HCV NS3/4A proteolytic activity (BMS strain)
Format: biochemical, HCV genotype 1a
Particulars: read-out: IC50 Range; HCV NS3/4A enzyme assay; class symbols

Sample answers from the record:
>  <Entry smiles>
C=C[C@@H]1C[C@]1(NC(=O)[C@@H]1C[C@@H](Oc2ncc(OC)c3ccc(Cl)cc23)CN1C(=O)[C@@H](Nc1nc(-c2cc(C(F)(F)F)cc(C(F)(F)F)c2)cs1)C(C)(C)C)C(=O)NS(=O)(=O)C1CC1

>  <IC50>
1 to 20 nM

$$$$
>  <Entry smiles>
C=C[C@@H]1C[C@]1(NC(=O)[C@@H]1C[C@@H](Oc2ccc(OC)c3ccc(Cl)cc23)CN1C(=O)[C@@H](Nc1nc(-c2ccc(C(F)(F)F)cc2F)cs1)C(C)(C)C)C(=O)NS(=O)(=O)C1CC1

>  <IC50>
1 to 20 nM

$$$$
>  <Entry smiles>
C=C[C@@H]1C[C@]1(NC(=O)[C@@H]1C[C@@H](Oc2ncc(OC)c3ccc(Cl)cc23)CN1C(=O)[C@@H](Nc1nc(-c2cccnc2)cs1)C(C)(C)C)C(=O)NS(=O)(=O)C1CC1

>  <IC50>
1 to 20 nM

$$$$
>  <Entry smiles>
COc1cnc(O[C@@H]2C[C@@H](C(=O)N[C@]3(C(=O)NS(=O)(=O)C4CC4)C[C@H]3CC(F)F)N(C(=O)[C@@H](Nc3nc(-c4ccc(Oc5ccccc5)cc4)cs3)C(C)(C)C)C2)c2cc(Cl)ccc12

>  <IC50>
20 to 200 nM

$$$$

Now let's try a different one.
// query For the compound shown here, C=C[C@@H]1C[C@]1(NC(=O)[C@@H]1C[C@@H](Oc2ncc(OC)c3ccc(Cl)cc23)CN1C(=O)[C@@H](Nc1nc(-c2ccc(Cl)cc2)cs1)C(C)(C)C)C(=O)NS(=O)(=O)C1CC1 , give the reported IC50.
// result 1 to 20 nM
